Test system: Saccharomyces cerevisiae;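 further: PSI is a weighted mean of sequencing reads over stability bins, variants kept only with over 10 reads, mCherry proximal and sfGFP distal, peptide attached via GGGS linker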
protocol-description: protein stability index of tFT-peptide fusion (C-terminal peptide) (PSI (0-1 scale)); higher = more stable (slower turnover)
condition-details: genetic background: wild type; temperature: 30 C
# if value of protein stability index reaches 0.7, tag Satisfied; if it stays below, tag Not satisfied

ETVRPYSPMRPG | Not satisfied
GMECFSGRGSEP | Satisfied
KKTIENEGRNIL | Not satisfied

Q. Does `PPPVLSPRFPVL` have a reported protein stability index of at least 0.7?
A. Satisfied

Q. Does `KKRKKKRTEPQP` have a reported protein stability index of at least 0.7?
A. Not satisfied

Q. Does `RRMIKNVRRHKV` have a reported protein stability index of at least 0.7?
A. Not satisfied

Q. Does `MKPPIGGNKPGL` have a reported protein stability index of at least 0.7?
A. Satisfied

Q. Does `EWVKFCFPIVQS` have a reported protein stability index of at least 0.7?
A. Not satisfied

Q. Does `RRRSAFRLIKEK` have a reported protein stability index of at least 0.7?
A. Not satisfied
